Target: GLP-1 receptor (GLP-1R) (human, UniProt P43220 24-463)
Assay: cell-based or functional assay
Starred links: 1 amine or outer side, 2 acyl side, 3 side chain; linkers in the order of their positions; H or OH if unused. Non-standard residues stand in square brackets, D forms with d. Groups on a side chain read outwards from the residue. Primed or numbered codes have the meaning given here. No end group written: not given here. *: point of attachment. γGlu = O=C(O)[C@H](CCC(=O)[*:2])N[*:1]; Stearoyl = CCCCCCCCCCCCCCCCCC(=O)*; αMeF = C[C@](N)(Cc1ccccc1)C(=O)O; αMeK = C[C@](N)(CCCCN)C(=O)O; αMeS = C[C@](N)(CO)C(=O)O; PEG2′ = not defined here; Aib = CC(C)(N)C(=O)O
ENDPOINT: cAMP Primary assay EC50 GLP-1R n2 (nM)

Observe how each entry below is paired with its result.
## Task Entry under review: H[Aib]K([PEG2′-PEG2′-γGlu-Stearoyl])GS[αMeF]TSDV[αMeS]S[αMeF]LEGEAA[αMeK]E[αMeF]IA[αMeF]VV[αMeK]GG-NH2 [SEQ ID NO 126] . Reported cAMP Primary assay EC50 GLP-1R n2?
## Result 25.4

## Task Entry under review: HXEGSFTSDVSKFLEGEAAKEFIAFVVKGG (Aib 2; α-MeF 6, 13, 22, 25; α-MeS 11; α-MeK 20, 28; K(ε-γE-Palmitoyl) 12; C-terminal amide) [SEQ ID NO 88] . Reported cAMP Primary assay EC50 GLP-1R n2?
## Result 0.0057

I = H[Aib]EGS[αMeF]TSDV[αMeS]S[αMeF]LEGEAA[αMeK]E[αMeF]IA[αMeF]VV[αMeK]GK([PEG2′-PEG2′-γGlu-Stearoyl])-NH2 [SEQ ID NO 99]
II = H[Aib]EGS[αMeF]TSDV[αMeS]S[αMeF]LEGEAA[αMeK]E[αMeF]IA[αMeF]VK([PEG2′-PEG2′-γGlu-Stearoyl])[αMeK]GG-NH2 [SEQ ID NO 102]
III = H[Aib]EGK([PEG2′-PEG2′-γGlu-Stearoyl])[αMeF]TSDV[αMeS]S[αMeF]LEGEAA[αMeK]E[αMeF]IA[αMeF]VV[αMeK]GG-NH2 [SEQ ID NO 124]
## Task I would appreciate it if you could sort these 3 binders by cAMP Primary assay EC50 GLP-1R n2, starting from the smallest number. Thanks in advance for listing the labels in the requested order.
## Result II, I, III

The measured values listed here are drawn from patent US20200079833A1.
